- MEASUREMENT TARGET: Sialic acid-binding Ig-like lectin 9 (Homo sapiens) (UniProt Q9Y336)
- Sequence (Q9Y336 whole entry): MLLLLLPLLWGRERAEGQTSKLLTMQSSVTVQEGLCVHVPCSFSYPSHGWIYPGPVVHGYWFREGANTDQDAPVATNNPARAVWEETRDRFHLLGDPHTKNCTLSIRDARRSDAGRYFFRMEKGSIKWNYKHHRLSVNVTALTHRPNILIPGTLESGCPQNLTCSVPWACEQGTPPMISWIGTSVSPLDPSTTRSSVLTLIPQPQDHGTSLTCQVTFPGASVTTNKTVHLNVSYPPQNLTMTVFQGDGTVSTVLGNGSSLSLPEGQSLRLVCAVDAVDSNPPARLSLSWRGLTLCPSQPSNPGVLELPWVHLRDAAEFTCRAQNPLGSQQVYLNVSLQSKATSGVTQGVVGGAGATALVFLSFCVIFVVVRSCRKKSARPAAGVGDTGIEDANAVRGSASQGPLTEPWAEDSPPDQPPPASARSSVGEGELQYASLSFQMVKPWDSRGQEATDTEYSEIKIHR
- METHOD SUMMARY: Hs-Siglec9 ALPHAscreen SOP 20170721
- Design: scale not given: direction of the effect not stated beside the values
- MEASUREMENT PARAMETERS: 10 µM
Please go through the items and note down their Percent Effect.
Kindly provide the numeric value in % only, without the unit symbol.

Data request: Give the measured Percent Effect of CC(C)c1nnc2n1CCN(Cc1csc(CC(=O)N(C)C)n1)C2 .
Data returned: 3.17

Data request: Percent Effect lookup needed for CN(C)C(=O)CC1CC2(CCN(C(=O)N(C)C)CC2)Oc2ccccc21 (stereo unspecified) , thanks.
Data returned: -1.19

Data request: Please report the recorded Percent Effect for COc1c(CNCc2cnn(C)c2)c(C(C)C)nn1C .
Data returned: -0.847

Data request: Which value of Percent Effect has been reported for CC(C)NC(=O)N1CCN(CC2CC2)CC2(CC(=O)N(C)C2)C1 (stereo unspecified) in the records?
Data returned: -6.25

Data request: Look at this compound and give its reported Percent Effect. COc1ccc(OC)c(NC(=O)N2CCCC2c2ccco2)c1 (stereo unspecified)
Data returned: -2.94

Data request: What measured Percent Effect goes with Cc1cc(C(=O)N2CCCC(n3cncn3)C2)c(C)n1C1CC1 (stereo unspecified) ?
Data returned: 1.98

Data request: # input compound: CCn1c(C)nnc1CN(C)C1CCN(Cc2cnc(C)cn2)C1 (stereo unspecified) ; wanted: its Percent Effect
Data returned: 0.873

Data request: What measured Percent Effect goes with COc1ccc(C(CO)NC(=O)Nc2cccnc2)cc1 (stereo unspecified) ?
Data returned: 3.21

Data request: Which Percent Effect is listed for Cc1nc(C)n(CC2CCCN(CCc3ccncc3)C2)n1 (stereo unspecified) ?
Data returned: 18.2

Data request: Look up Percent Effect for this compound: Cc1ncsc1CCC(=O)NCc1cc2n(n1)CCN(C(=O)N(C)C)C2
Data returned: -4.18

Data request: Any idea what its Percent Effect is? The compound is CS(=O)(=O)CC(=O)N1C[C@H]2CCC[C@@]2(COCc2ccccn2)C1
Data returned: 0.525

###

- MEASUREMENT TARGET: Ubiquitin-activating enzyme e1, putative (Leishmania donovani (strain BPK282A1))
- Sequence (whole entry): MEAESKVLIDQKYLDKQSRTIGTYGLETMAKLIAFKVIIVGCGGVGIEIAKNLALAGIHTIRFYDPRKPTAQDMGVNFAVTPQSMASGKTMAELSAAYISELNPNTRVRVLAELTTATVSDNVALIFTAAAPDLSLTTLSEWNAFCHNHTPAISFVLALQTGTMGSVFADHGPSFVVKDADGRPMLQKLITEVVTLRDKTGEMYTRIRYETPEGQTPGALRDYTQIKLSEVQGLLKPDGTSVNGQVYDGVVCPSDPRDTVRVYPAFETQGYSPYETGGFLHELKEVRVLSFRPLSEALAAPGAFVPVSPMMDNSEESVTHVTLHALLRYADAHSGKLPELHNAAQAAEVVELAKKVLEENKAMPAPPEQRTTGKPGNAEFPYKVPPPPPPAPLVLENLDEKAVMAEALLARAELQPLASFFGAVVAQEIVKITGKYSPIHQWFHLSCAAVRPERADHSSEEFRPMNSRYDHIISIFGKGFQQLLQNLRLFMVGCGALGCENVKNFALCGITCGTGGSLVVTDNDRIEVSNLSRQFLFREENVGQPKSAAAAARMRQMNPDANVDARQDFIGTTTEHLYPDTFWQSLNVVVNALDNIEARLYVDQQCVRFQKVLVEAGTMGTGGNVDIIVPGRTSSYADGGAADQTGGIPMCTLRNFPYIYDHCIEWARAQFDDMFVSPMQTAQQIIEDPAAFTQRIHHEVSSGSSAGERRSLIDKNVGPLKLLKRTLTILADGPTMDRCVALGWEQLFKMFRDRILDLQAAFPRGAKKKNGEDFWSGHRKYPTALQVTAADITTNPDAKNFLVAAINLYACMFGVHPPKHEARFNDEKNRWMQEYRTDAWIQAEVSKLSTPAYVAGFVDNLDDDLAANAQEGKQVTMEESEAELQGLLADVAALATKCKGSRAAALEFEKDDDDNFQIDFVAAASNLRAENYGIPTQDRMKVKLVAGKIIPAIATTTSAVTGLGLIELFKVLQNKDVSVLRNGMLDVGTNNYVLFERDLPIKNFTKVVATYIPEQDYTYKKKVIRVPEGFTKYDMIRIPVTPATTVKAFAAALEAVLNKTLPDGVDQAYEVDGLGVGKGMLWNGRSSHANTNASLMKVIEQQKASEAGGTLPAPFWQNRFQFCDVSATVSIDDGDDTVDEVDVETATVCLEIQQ
- METHOD SUMMARY: Leishmania donovani Ubiquitin Activating Enzyme (LdE1)
- Type: functional
- Set-up: scale not given: direction of the effect not stated beside the values
- MEASUREMENT PARAMETERS: 30 µM
Potency and affinity values are given separately.
Please go through the items and note down their Percent Effect.
Give just the numeric value; % need not be written.

Data request: Item CC(C(=O)Nc1cccc(N2CCCCC2)c1)n1cncn1 (configuration not stated) has what recorded Percent Effect?
Data returned: 13.5

Data request: Could you share which Percent Effect value was measured for O=C(NCCc1ccccc1)C1CCC(Cn2cnnn2)CC1 (configuration not stated) ?
Data returned: -4

Data request: So what's the measured Percent Effect for this one? O=C(c1ccc[nH]1)N1CCn2cc(Cn3cncn3)nc2C1
Data returned: 2.67

Data request: // returns reported Percent Effect for input O=C(NC1CCCN(c2ncccn2)C1)c1ccoc1 (configuration not stated)
Data returned: 23.7

Data request: # input compound: CC(C)COC(C)C(=O)NCc1ccc(N(C)C)cc1 (configuration not stated) ; wanted: its Percent Effect
Data returned: 23.4

Data request: For CC(Cn1cccn1)NCc1nc(-c2cccc(Cl)c2)no1 (configuration not stated) , what is its reported Percent Effect?
Data returned: -2.63

Data request: Tell me the measured Percent Effect of Cc1nnc(Nc2cccc(C3CCN(CCO)CC3)n2)s1 , please.
Data returned: 13.3

Data request: I am curious: what Percent Effect value has been reported for Cc1ccc(OCCCNC(=O)NC(C)c2nncn2C)cc1 (configuration not stated) ?
Data returned: 13

Data request: Could you share which Percent Effect value was measured for Cc1ccc(CNC(=O)Nc2cc(C(F)(F)F)c[nH]c2=O)cn1 ?
Data returned: 6.94

Data request: For the compound shown here, CCN(CC)C(=O)Cn1ccc2cc(NC(=O)C3CCCO3)ccc21 (configuration not stated) , give the reported Percent Effect.
Data returned: 26.3

Data request: Consider the compound shown here: CN(Cc1ccsc1)C(=O)Nc1cccnc1N1CCCC1 What is its recorded Percent Effect?
Data returned: 7.89

Data request: Given the compound CC(C)n1c(C2CCCN(Cc3ccnn3C)C2)nc2ccccc21 (configuration not stated) , what is its reported Percent Effect?
Data returned: 5.33

###

Assignment: determine reported Percent Effect for the given molecules.
- Tested on: Trypanosoma cruzi
- METHOD SUMMARY: Trypanosoma cruzi phosphomannomutase and mannose-1-phosphate guanylyltransferase assay
- Format: functional
- Set-up: scale not given: direction of the effect not stated beside the values
- MEASUREMENT PARAMETERS: 10 µM
Numeric only. Scale: %

Data request: // returns reported Percent Effect for input Cn1ncc2c1CCCC2NCc1ccc(Cl)s1 (configuration not stated)
Data returned: -1.08

Data request: Requested read-out: Percent Effect. Entry: N#Cc1cnn(-c2ccc(C(=O)Nc3ccccn3)cc2)c1N
Data returned: 7.65

Data request: Which Percent Effect value is on record for COC(=O)CS(=O)(=O)CCC(=O)N1CCCC1c1ccsc1 (configuration not stated) ?
Data returned: 2.82

Data request: Which measured Percent Effect value corresponds to COc1ccc(-c2noc(C(=O)NCCN3CCCCC3)n2)cc1OC ?
Data returned: 8.25

Data request: Fill blank: measured Percent Effect of the molecule CN(Cc1cnn(C)c1)C(=O)NCc1nnc2n1CCC2 is ____.
Data returned: 4.06

Data request: GET /values?readout=Percent Effect&item= COc1ccnc(N2CCN(C(=O)CCc3nccs3)CC2)n1
Data returned: -1.54

Data request: Which Percent Effect value belongs to CNc1nc2c(s1)C(c1c(F)cccc1Cl)CC(=O)N2 (configuration not stated) ?
Data returned: 4.58

Data request: Consider the molecule shown here: CCN(CC)C(C(=O)NCc1ccc(N2CCCC2)nc1)C(C)C (configuration not stated) What is its recorded Percent Effect?
Data returned: -5.94

Data request: Requested read-out: Percent Effect. Entry: CSc1ncccc1C(=O)N1C[C@H]2CC[C@@H]1CN(c1ncccn1)C2
Data returned: 1.87

Data request: Field request: Percent Effect | item: CC(C)c1nnc2n1CC(CNCc1ccncc1)CC2 (configuration not stated)
Data returned: -3.21

Data request: Fill in the blank: the reported Percent Effect of Cn1cc(C2CCCN2Cc2csc(C(C)(C)C)n2)cn1 (configuration not stated) is ____.
Data returned: 6.33

Data request: Looking for the measured Percent Effect of O=C(COc1ccc(C(F)(F)F)cc1)NS(=O)(=O)c1cccnc1 , can you help?
Data returned: -1.5
